Data origin, for the record: the supplement of paper PMC10567573

Recorded measurements of protein stability index, one per entry
B1: SPOPL (parent)
chain: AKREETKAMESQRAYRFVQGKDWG

- Variants of: B1
- EXPERIMENTAL PROTOCOL: protein stability index of a GFP-peptide fusion (GPS, HEK-293T) (PSI 1-6); higher = more stable;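 further: lentivirally expressed fusions sorted by FACS into six bins by GFP to DsRed ratio, PSI derived from sequencing read proportions per bin multiplied by bin number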
- STUDY CONDITIONS: c terminus: a fixed tail appended
Respond with the number and no other words.

The following variants have reported results that may help.
polymer_sequence="AKREETKAMESQRAYRFVQEKDWG [G20E]" measured_attribute="protein stability index" quantitative_result=4.31
polymer_sequence="AKREETKAMESQAAYRFVQGKDWG [R13A]" measured_attribute="protein stability index" quantitative_result=3.65
polymer_sequence="AKREETKAMESQRAYRPVQGKDWG [F17P]" measured_attribute="protein stability index" quantitative_result=4.03
polymer_sequence="ALREETKAMESQRAYRFVQGKDWG [K2L]" measured_attribute="protein stability index" quantitative_result=2.24
polymer_sequence="AKREETKAMESQRAYRFVQGCDWG [K21C]" measured_attribute="protein stability index" quantitative_result=3.28

// query Record request: protein stability index value, item AKREETKAMESQRAYRFVQGIDWG [K21I]
// result 2.94

// query Record request: protein stability index value, item ADREETKAMESQRAYRFVQGKDWG [K2D]
// result 3.39
